target: PTGER2 (EP2) (Homo sapiens (Human), UniProt P43116); assay: hEP2 b-arrestin assay (PathHunter HEK 293 PTGER2 b-arrestin cells); type: cell-based; details: antagonistic activity on hEP2; mean where measured multiple times
Sequence (P43116 whole entry): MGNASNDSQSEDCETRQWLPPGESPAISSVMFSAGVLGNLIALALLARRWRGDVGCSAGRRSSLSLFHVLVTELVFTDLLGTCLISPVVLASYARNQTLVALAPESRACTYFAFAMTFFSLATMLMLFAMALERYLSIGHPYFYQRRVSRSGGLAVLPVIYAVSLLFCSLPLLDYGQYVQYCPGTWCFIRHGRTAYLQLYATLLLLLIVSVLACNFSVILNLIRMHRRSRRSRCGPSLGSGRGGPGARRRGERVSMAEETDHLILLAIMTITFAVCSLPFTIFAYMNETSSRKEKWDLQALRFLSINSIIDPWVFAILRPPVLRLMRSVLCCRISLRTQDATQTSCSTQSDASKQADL
OBSERVATION TYPE: pIC50
Give bare numbers, as −log10 of the molar value.

Below, 4 compounds whose answers are already recorded.
MOLECULAR STRING | TARGET OR SYSTEM | pIC50
Cc1cc2c(Cl)cccc2n1CCNc1cc(-c2ccc(C(=O)O)c(C3CC3)c2)ncn1 | PTGER2 (EP2) (Homo sapiens (Human), UniProt P43116) | 8.10
CCNc1cc(-c2cc(NCCn3c(C)cc4c(OC)ccc(F)c43)ncn2)cc(Cl)c1C(=O)O | PTGER2 (EP2) (Homo sapiens (Human), UniProt P43116) | 8.52
CSc1cc(-c2cc(NCCn3c(C)cc4c(F)c(F)cc(Cl)c43)ncn2)cc(Cl)c1C(=O)O | PTGER2 (EP2) (Homo sapiens (Human), UniProt P43116) | 8.30
CCOc1cc(-c2cc(NCCn3c(C)cc4cc(C)cc(F)c43)ncn2)ccc1C(=O)O | PTGER2 (EP2) (Homo sapiens (Human), UniProt P43116) | 7.33

Would you mind listing pIC50 for each of the following compounds?
1. CCOc1cc(-c2cc(NCCn3c(C)cc4ccc(Cl)c(Cl)c43)ncn2)sc1C(=O)O
2. COc1ccc(F)c2c1cc(C)n2CCNc1cc(-c2ccc(C(=O)O)cc2)ncn1
3. CCOc1cc(-c2cc(NCCn3c(C)cc4c(C)cc(F)c(Cl)c43)ncn2)ccc1C(=O)O
4. COc1ccc(Cl)c2c1cc(C)n2CCNc1cc(-c2ccc3c(c2)CCN3)ncn1
5. Cc1ccc(F)c2c1cc(C)n2CCNc1cc(-c2ccc(S(=O)(=O)O)cc2)ncn1
6. CCCNc1cc(-c2cc(NCCn3c(C)cc4c(C)ccc(F)c43)ncn2)ccc1C(=O)O
7. Cc1cc(F)cc2c1cc(C)n2CCNc1cc(-c2cc(C(F)(F)F)c(C(=O)O)s2)ncn1

## Output
1: 8.05; 2: 7.31; 3: 6.33; 4: 7.68; 5: 7.47; 6: 7.82; 7: 7.21

Fill in pIC50 for each of the 2 compounds listed.
1. CCOc1cc(-c2cc(NCCn3c(C)cc4c(C)cc(Cl)cc43)ncn2)sc1C(=O)O
2. COc1ccc(F)c2c1cc(C)n2CCNc1cc(-c2cc(C)c(C(=O)O)c(C)c2)ncn1

## Output
1: 8.40; 2: 7.28

These entries and their values trace back to patent US12011444B2.
